Item-by-item account of composite z-score
target: Carbonic anhydrase 2 (Homo sapiens); assay: CAII small-molecule binders, profiling panel, biochemical, small-molecule microarray, Alexa647-labelled CAII (AID 1122); conditions: CAII-A647 binding fluorescence, higher = more signal
Just the number, please.

Reported composite z-score of CN(C)CCCC[C@@H]1NC(=O)[C@@H]2C[C@H](C(=O)NCCCCCNC(=O)CS)[C@H](c3ccc(O)cc3)N2C1=O : 0.58

Reported composite z-score of CN(C)CCCC[C@@H]1NC(=O)[C@@H]2C[C@H](C(=O)O)[C@H](c3ccc(O)cc3)N2C1=O : 0.398

Reported composite z-score of C=C(COC)C(=O)CC[C@H](OC(=O)c1ccccc1-c1ccccc1C(=O)O)c1cccc(OCCO)c1 : 0.418

Reported composite z-score of Cc1ccc(N2C(=O)c3ccccc3[C@](C)(C(=O)NCC(C)C)[C@@H]2c2ccc(CO)cc2)nc1 : 0.265

Reported composite z-score of CC(=O)NCCCC[C@@H]1NC(=O)[C@@H]2C[C@H](C(=O)NCc3ccc(F)cc3)[C@H](c3cccc(OCCO)c3)N2C1=O : 0.659

Now look at this one.
Reported composite z-score of Cc1ccc(S[C@]2(C(=O)NC3CC3)CC(=O)N(Cc3cc(C(F)(F)F)cc(C(F)(F)F)c3)[C@@H]2c2ccc(CO)cc2)cc1 : 0.375

* * *

experiment: A549 lung cancer cell viability effects, profiling panel, resazurin fluorescence, 24 h, PK04 Diversity Set (AID 1171); conditions: higher = more signal, called active from +8 up or from −8 down; note: test concentration not given here
Answer no (0) if z-score is under 0.8, and yes (1) if it is 0.8 or more.

Previously resolved entries follow.
Lookup: Form field: z-score at least 0.8? Entry: C=CC[C@]1(C(N)=O)N=C(c2ccc(OCCCO)cc2)O[C@H]1c1ccccc1CN=[N+]=[N-]
Found: no (0)

Lookup: Form field: z-score at least 0.8? Entry: CO[C@@H]1COC(=O)CC=C[C@@H](C)[C@H](OC)COC(=O)CC=C[C@H]1C
Found: no (0)

Lookup: Form field: z-score at least 0.8? Entry: C/C(=N\O)C(=O)NCCCCCNC(=O)OCc1ccccc1
Found: no (0)

More entries:
Lookup: Form field: z-score at least 0.8? Entry: CC(C)CN1C(=O)[C@@]2(Cc3ccccc31)c1ccccc1C(=O)N(C1CCCCC1)[C@H]2c1ccc(CO)cc1
Found: no (0)

Lookup: Form field: z-score at least 0.8? Entry: O=C(NCc1ccccc1)[C@@]1(CCS(=O)(=O)c2ccccc2)COC(c2ccc(OCCCO)cc2)=N1
Found: no (0)

Lookup: Form field: z-score at least 0.8? Entry: CCOC(=O)C[C@H]1[C@H](OC(=O)Cc2ccc3c(c2)OCO3)[C@@H](NC(=O)CC(C)C)c2cc(OCCCO)ccc2N1C(=O)c1ccccc1
Found: yes (1)

Lookup: Form field: z-score at least 0.8? Entry: Cc1ccc(N2C(=O)c3ccccc3[C@](C)(C(=O)O)[C@@H]2c2ccc(CO)cc2)nc1
Found: no (0)

Lookup: Form field: z-score at least 0.8? Entry: Cc1ccc(S(=O)(=O)c2cc3oc2CC[C@@H](CO)NC(=O)N(C)Cc2cn(nn2)C[C@H](Cc2ccccc2)NC3=O)cc1
Found: yes (1)

Lookup: Form field: z-score at least 0.8? Entry: CC1CC/C=C\[C@H]2OC34C=CCN(Cn5nnc6ccccc65)C(=O)[C@H]3N(C(C)CO)C(=O)[C@@H]4C2C(=O)O1 (stereo partly drawn)
Found: no (0)

Lookup: Form field: z-score at least 0.8? Entry: COCCOC(=O)N1C(=O)[C@@]2(c3cc(C#CCC(C(=O)OC)C(=O)OC)ccc31)[C@H](C(=O)N1CCN(c3ncccn3)CC1)[C@H]1C(=O)O[C@H](c3ccccc3)[C@H](c3ccccc3)N1[C@@H]2c1ccc(O)cc1
Found: no (0)

Lookup: Form field: z-score at least 0.8? Entry: O=C1NC(=O)C2C1C=CC(C(O)C=Cc1ccc([N+](=O)[O-])cc1)N2Nc1ccccn1 (stereo not drawn)
Found: no (0)

Lookup: Form field: z-score at least 0.8? Entry: CO[C@@H]1COC(=O)[C@@H]2CCCN2C(=O)CC=C[C@@H](C)[C@H](OC)COC(=O)[C@@H]2CCCN2C(=O)CC=C[C@H]1C
Found: yes (1)
